- TGT: T1, CD27 protein (His-tagged, Sino Biological Inc. 10039-H08B1) (human, UniProt P26842 20-192)
- T1 construct: bought protein coated on ELISA plates; also called TNFRSF7; not shown: His tag
- T1 sequence (looked up): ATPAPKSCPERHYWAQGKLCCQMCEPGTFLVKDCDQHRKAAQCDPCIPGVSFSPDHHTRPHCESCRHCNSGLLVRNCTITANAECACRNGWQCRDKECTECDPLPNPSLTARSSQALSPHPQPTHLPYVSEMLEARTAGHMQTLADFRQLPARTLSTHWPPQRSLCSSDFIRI
- TEST PROTOCOL: ELISA, coated His-tagged CD27; also: test concentration or dose not given here
I'd appreciate it if you could supply ELISA [abs. corr.] values for the items below.
Kindly provide the numeric value in abs. corr. only, without the unit symbol.

[ask] Name the reported ELISA [abs. corr.] value associated with the binder P018.S.02.A.B01 (antibody, V domains shown, V regions on human Ig constant parts; also called AB27_29) VH: QSVEESGGRLVTPGTPLTLTCTVSGMDLSSYSMSWVRQAPGEGLEYIGFIGSSGGTYYASWAKGRFTISRTSTTVDLNITSPTTEDTATYFCARMLAGVYTRLDLWGQGTLVTVSS VL: AQVLTQTPSSVSAAVGGTVTINCQASQSISSSYCSWYQQKPGQPPKLLIYKASTLASGVPSRFKGSGSGTQFTLTISDVQSDDAATYYCAGDFIASSGNAFGGGTEVVVK
[reply] 2.93

[ask] Name the reported ELISA [abs. corr.] value associated with the binder P018.S.06.A.B01 (antibody, V domains shown, V regions on human Ig constant parts; also called AB27_98) VH: QSLEESGGGLVKPEGSLTLTCTASGFSFSSSYWICWVRQAPGKGLEWIGCIYAGTFSDTFYASWTKGRFTISKTSSTTVTLQMTSLTGADTATYFCARGHYYYTDNYTANGYGRGLTRLDLWGQGTLVTVSS VL: AAVLTQTPSPVSAAVGGTVTISCQASQSVYNNNNLAWYQQKAGQPPKLLIYGASNLESGVPSRFKGSGSGTQFTLTISDLESDDAASYYCAGGYTTSGDNGFGGGTEVVVK
[reply] 2.94

[ask] Name the reported ELISA [abs. corr.] value associated with the binder P018.S.10.A.C01 (antibody, V domains shown, V regions on human Ig constant parts; also called AB27_170) VH: QSVEESGGRLVTPGTPLTLTCTLSGFSLSNYAMSWVRQAPGKGLEWIGVIYTSGTTHYASWAKGRFTISKTSTTVDLRMTSLTTEDTATYFCARSRYYGSGWGGYYFNLWGQGTLVTVSS VL: DVVMTQTPSPVSAAVGGTVTINCQASEDIYSLLAWYQQKPGQRPKLLIYGASNLESGVPSRFKGSGSGTEYTLTISGVQSADAATYYCHGGTYTGSADINAFGGGTEVVVE
[reply] 2.93
